molecular target: F508delCFTR (Homo sapiens, UniProt P13569, DEL508-508); construct: expressed in transfected cells; host or cells: CFBE41o- human lung derived epithelial cells (CFBE41o-F508delCFTR-HRP), doxycycline-inducible; assay: Cell Surface Expression-Horse Radish Peroxidase (CSE-HRP) Assay; type: cell-based; conditions: with co-corrector; maximum at any tested concentration
Sequence (P13569 with tags, fused parts or gaps DEL508-508): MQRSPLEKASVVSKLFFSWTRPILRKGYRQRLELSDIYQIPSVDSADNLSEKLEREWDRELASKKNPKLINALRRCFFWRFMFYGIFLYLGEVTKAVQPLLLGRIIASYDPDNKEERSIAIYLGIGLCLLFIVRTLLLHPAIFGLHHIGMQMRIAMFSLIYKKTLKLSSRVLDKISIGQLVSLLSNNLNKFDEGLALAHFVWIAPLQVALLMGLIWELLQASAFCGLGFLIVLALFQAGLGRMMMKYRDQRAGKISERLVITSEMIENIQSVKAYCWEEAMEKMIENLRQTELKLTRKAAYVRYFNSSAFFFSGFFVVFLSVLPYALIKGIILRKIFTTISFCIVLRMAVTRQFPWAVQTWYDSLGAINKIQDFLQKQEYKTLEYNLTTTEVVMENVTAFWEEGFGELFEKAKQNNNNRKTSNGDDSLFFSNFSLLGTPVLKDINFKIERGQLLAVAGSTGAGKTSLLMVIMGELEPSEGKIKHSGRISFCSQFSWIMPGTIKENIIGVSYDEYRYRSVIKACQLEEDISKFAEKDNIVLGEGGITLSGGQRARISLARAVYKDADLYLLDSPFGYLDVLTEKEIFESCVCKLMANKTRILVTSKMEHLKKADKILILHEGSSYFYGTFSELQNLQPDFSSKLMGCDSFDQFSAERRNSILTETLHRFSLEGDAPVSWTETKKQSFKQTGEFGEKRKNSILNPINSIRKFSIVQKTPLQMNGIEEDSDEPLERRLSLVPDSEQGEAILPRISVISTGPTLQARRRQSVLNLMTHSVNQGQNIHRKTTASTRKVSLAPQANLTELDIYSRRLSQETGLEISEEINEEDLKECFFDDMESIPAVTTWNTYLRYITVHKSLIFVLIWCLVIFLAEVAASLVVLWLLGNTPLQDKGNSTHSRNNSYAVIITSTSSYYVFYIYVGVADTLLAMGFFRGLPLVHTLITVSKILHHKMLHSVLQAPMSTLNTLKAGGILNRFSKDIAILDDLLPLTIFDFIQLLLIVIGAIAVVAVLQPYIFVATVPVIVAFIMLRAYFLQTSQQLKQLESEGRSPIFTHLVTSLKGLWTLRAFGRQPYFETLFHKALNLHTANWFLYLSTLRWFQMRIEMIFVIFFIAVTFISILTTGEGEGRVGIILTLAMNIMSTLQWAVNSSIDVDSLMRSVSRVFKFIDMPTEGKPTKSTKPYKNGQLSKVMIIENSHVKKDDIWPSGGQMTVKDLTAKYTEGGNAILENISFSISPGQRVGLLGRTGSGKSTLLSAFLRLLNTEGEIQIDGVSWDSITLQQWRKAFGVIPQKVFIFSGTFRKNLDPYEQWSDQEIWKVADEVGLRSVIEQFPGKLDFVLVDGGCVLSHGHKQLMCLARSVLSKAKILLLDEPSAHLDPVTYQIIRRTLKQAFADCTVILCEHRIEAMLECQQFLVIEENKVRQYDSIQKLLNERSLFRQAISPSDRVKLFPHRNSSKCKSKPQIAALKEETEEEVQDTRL
MEASURED_QUANTITY: Maximum % activity (with co-corrector)

1. COC(=O)C1(c2ccc(OC)c(C3(C(=O)NS(=O)(=O)c4cccc5ncccc45)CC3)c2)CC1 [II-30] | +++ (≥350)
2. COc1ccc(C)nc1C1(C(=O)NS(=O)(=O)c2cccc3nc(C)ccc23)CC1 [Example III-126] | ++ (≥150 and <350)
3. COc1cc(C2CCC2)cc(OC)c1C1(C(=O)NS(=O)(=O)c2cccn3nccc23)CC1 [II-68] | +++ (≥350)
4. COc1ccc(C2CCC2)cc1C1(C(=O)NS(=O)(=O)c2cccc3c2CCCN3)CCC1 [Example I-10] | +++ (≥350)
5. COc1ccc(C2CCC2)cc1C1(C(=O)NS(=O)(=O)c2cccc3ccc(C)nc23)CC1 [Example I-62] | +++ (≥350)
6. CCOc1ccc(C)cc1C1(C(=O)NS(=O)(=O)c2cccc3ncccc23)CC1 [Example I-82] | +++ (≥350)

Given the molecule COc1ccc(C)c(C)c1C1(C(=O)NS(=O)(=O)c2cccc3c2CCCN3)CC1 [II-36] , what is its reported Maximum % activity (with co-corrector)?
+++ (≥350)

Given the molecule COc1cccc(C)c1C1(C(=O)NS(=O)(=O)c2cccc3nc(C)ccc23)CC1 [II-50] , what is its reported Maximum % activity (with co-corrector)?
+++ (≥350)

Given the molecule COc1ccc(C2(OC)CCC2)cc1C1(C(=O)NS(=O)(=O)c2cccc3ncccc23)CC1 [Example I-88] , what is its reported Maximum % activity (with co-corrector)?
+++ (≥350)

Given the molecule CCc1ccc(OC(F)F)c(C2(C(=O)NS(=O)(=O)c3cccc4ncccc34)CC2)c1 [II-98] , what is its reported Maximum % activity (with co-corrector)?
+++ (≥350)

Given the molecule COc1ccc(C(OC)C(F)(F)F)cc1C1(C(=O)NS(=O)(=O)c2cccc3ncccc23)CC1 (stereo not shown) [II-86] , what is its reported Maximum % activity (with co-corrector)?
+++ (≥350)

Given the molecule O=C(NS(=O)(=O)c1ccc2c(c1)CCC2)C1(c2ccc(Cl)cc2Cl)CC1 [Example III-8] , what is its reported Maximum % activity (with co-corrector)?
++ (≥150 and <350)

* * *

molecular target: F508delCFTR (Homo sapiens, UniProt P13569, DEL508-508); construct: expressed in transfected cells; host or cells: CFBE41o- human lung derived epithelial cells (CFBE41o-F508delCFTR-HRP), doxycycline-inducible; test: Cell Surface Expression-Horse Radish Peroxidase (CSE-HRP) Assay; type: cell-based; conditions: with co-corrector; maximum at any tested concentration
MEASURED_QUANTITY: Maximum % activity (with co-corrector)

Please review the entries below; each comes with its answer.
1. COc1ccc(C(C)(C)C)cc1C1(C(=O)NS(=O)(=O)c2cccc3ncccc23)CC1 | +++ (≥350)
2. Cc1ccc(S(=O)(=O)NC(=O)C2(c3cccc(Cl)c3)CC2)cc1C | + (<150)
3. CCC(CC)S(=O)(=O)NC(=O)C1(c2ccccc2)CC1 | + (<150)
4. Cc1ccc2c(S(=O)(=O)NC(=O)C3(c4cc(N(C)C)cnc4OCC(C)C)CC3)cccc2n1 | +++ (≥350)

Return Maximum % activity (with co-corrector) measured with F508delCFTR (Homo sapiens, UniProt P13569, DEL508-508) given this molecule: "COc1ccc(C)nc1C1(C(=O)NS(=O)(=O)c2cccc3ccccc23)CC1"
+++ (≥350)

Return Maximum % activity (with co-corrector) measured with F508delCFTR (Homo sapiens, UniProt P13569, DEL508-508) given this molecule: "Cc1ccc2c(S(=O)(=O)NC(=O)C3(c4cc(Cl)ccc4OC(F)F)CC3)cccc2n1"
+++ (≥350)

Return Maximum % activity (with co-corrector) measured with F508delCFTR (Homo sapiens, UniProt P13569, DEL508-508) given this molecule: "O=C1Cc2cc(S(=O)(=O)NC(=O)C3(c4cccc(Cl)c4)CC3)ccc2N1"
+ (<150)

Return Maximum % activity (with co-corrector) measured with F508delCFTR (Homo sapiens, UniProt P13569, DEL508-508) given this molecule: "CN(C(=O)C1(c2ccc(Cl)cc2Cl)CC1)S(=O)(=O)c1ccc(Cl)cc1"
+ (<150)

Return Maximum % activity (with co-corrector) measured with F508delCFTR (Homo sapiens, UniProt P13569, DEL508-508) given this molecule: "CC(C)Oc1ncc(Br)cc1C1(C(=O)NS(=O)(=O)c2cccc3c2CCCN3)CC1"
+++ (≥350)

Return Maximum % activity (with co-corrector) measured with F508delCFTR (Homo sapiens, UniProt P13569, DEL508-508) given this molecule: "COc1ccc(C2CC2)c(C)c1C1(C(=O)NS(=O)(=O)c2cccc3[nH]ncc23)CC1"
+++ (≥350)

Return Maximum % activity (with co-corrector) measured with F508delCFTR (Homo sapiens, UniProt P13569, DEL508-508) given this molecule: "COc1ccc(C2CCC2)cc1C1(C(=O)NS(=O)(=O)c2cccc3c2CCN3C)CC1"
+++ (≥350)

* * *

target: F508delCFTR (Homo sapiens, UniProt P13569, DEL508-508); construct: expressed in transfected cells; host or cells: CFBE41o- human lung derived epithelial cells (CFBE41o-F508delCFTR-HRP), doxycycline-inducible; assay: Cell Surface Expression-Horse Radish Peroxidase (CSE-HRP) Assay; type: cell-based; details: without co-corrector; maximum at any tested concentration; read-out: Maximum % activity (without co-corrector);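 for Maximum % activity (without co-corrector): % of on-plate positive control chromenyl benzoic acid corrector at 2 or 3 µM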
MEASURED_QUANTITY: Emax

Please review the entries below; each comes with its answer.
1. O=C(NS(=O)(=O)c1ccc(OC(F)(F)F)cc1)C1(c2ccc(Cl)cc2Cl)CC1 [Example III-14] | < 50%
2. COc1ccc(C)cc1C1(C(=O)NS(=O)(=O)c2cccc3ncccc23)CC1 [Example I-44] | > 150%
3. CC(C)Oc1ncc(Br)cc1C1(C(=O)NS(=O)(=O)c2cccc3ncccc23)CC1 [Example GI-1] | > 150%

Return Emax measured with F508delCFTR (Homo sapiens, UniProt P13569, DEL508-508) given this compound: COc1ccc(C)c(OC)c1C1(C(=O)NS(=O)(=O)c2cccc3ncccc23)CC1 [Example I-41]
> 150%

* * *

target: F508delCFTR (Homo sapiens, UniProt P13569, DEL508-508); construct: expressed in transfected cells; host or cells: CFBE41o- human lung derived epithelial cells (CFBE41o-F508delCFTR-HRP), doxycycline-inducible; assay: Cell Surface Expression-Horse Radish Peroxidase (CSE-HRP) Assay; format: cell-based; details: test compound alone, without co-corrector; read-out: EC50 (without co-corrector)
pEC50: −log10 of the molar value.
MEASURED_QUANTITY: pEC50

1) COc1ccc(C(C)C)cc1C1(C(=O)NS(=O)(=O)c2cccc3ncccc23)CC1 | > 5.52
2) Cc1ccc(OC(C)C)c(C2(C(=O)NS(=O)(=O)c3cccc4nc(C)ccc34)CC2)c1 | > 5.52
3) COc1ccc(OC2CCOC2)cc1C1(C(=O)NS(=O)(=O)c2cccc3ncccc23)CC1 (centres unmarked) | 5.00 to 5.52
4) O=C(NS(=O)(=O)c1ccc(OC(F)(F)F)cc1)C1(c2ccc(Cl)cc2Cl)CC1 | < 5.00
5) O=C(NS(=O)(=O)c1ccc(Br)s1)C1(c2ccc(Cl)cc2Cl)CC1 | < 5.00
6) COc1cc(F)c(C(C)C)cc1C1(C(=O)NS(=O)(=O)c2cccc3c2CCCN3)CC1 | > 5.52
7) CC(C)COc1ccc(N(C)C)c(C2(C(=O)NS(=O)(=O)c3cccc4ncccc34)CC2)n1 | > 5.52
8) O=C(NS(=O)(=O)c1ccccc1)C1(c2cccc(Br)c2)CC1 | 5.00 to 5.52
9) COc1ncc(C(F)(F)F)cc1C1(C(=O)NS(=O)(=O)c2cccc3c2CCCN3)CC1 | 5.00 to 5.52
10) COc1ncc(C(F)(F)F)cc1C1(C(=O)NS(=O)(=O)c2cccn3nccc23)CC1 | 5.00 to 5.52

Given the compound "O=C(NS(=O)(=O)c1cc([N+](=O)[O-])ccc1Cl)C1(c2cccc(Cl)c2)CC1" , what is its reported pEC50?
< 5.00

Given the compound "COc1ncc(C2CCC2)cc1C1(C(=O)NS(=O)(=O)c2cccc3[nH]ccc23)CC1" , what is its reported pEC50?
> 5.52

Given the compound "CC(C)Oc1ncc(Br)cc1C1(C(=O)NS(=O)(=O)c2cccc3c2CCCN3)CC1" , what is its reported pEC50?
> 5.52

Given the compound "CC(C)Oc1ncc(C2CCC2)cc1C1(C(=O)NS(=O)(=O)c2cccc3[nH]ccc23)CC1" , what is its reported pEC50?
> 5.52

Given the compound "Cc1ccc2c(S(=O)(=O)NC(=O)C3(c4cc(C5CCC5)ncc4OC(C)C)CC3)cccc2n1" , what is its reported pEC50?
5.00 to 5.52

Given the compound "CCC(CC)S(=O)(=O)NC(=O)C1(c2ccccc2)CC1" , what is its reported pEC50?
< 5.00

Given the compound "CC(C)Oc1ncc(C2CCC2)cc1C1(C(=O)NS(=O)(=O)c2cccc3ncccc23)CC1" , what is its reported pEC50?
> 5.52

Given the compound "O=C(NS(=O)(=O)c1cccnc1)C1(c2ccc(Cl)cc2Cl)CC1" , what is its reported pEC50?
< 5.00
